target: HLA-A2402 (human)
attribute-measured: pKi
Note on pKi: it is the negative log10 of concentration, concentration in mol/L.

Consider the following illustrative entries.
YYRGLDVSVI (modifications not checked) | 8.70
GLTHIDAHF (modifications not checked) | 8.52

// next entry
IIMYAPTLW (modifications not checked) yielded pKi of 9.10
